Where these numbers come from: patent US9012496B2

- ASSAY_SYSTEM: ΔF508-CFTR (Homo sapiens, UniProt P13569, DEL508-508)
- Construct: Fisher rat epithelial (FRT) cells (Ussing chamber)
- Sequence (P13569 with tags, fused parts or gaps DEL508-508): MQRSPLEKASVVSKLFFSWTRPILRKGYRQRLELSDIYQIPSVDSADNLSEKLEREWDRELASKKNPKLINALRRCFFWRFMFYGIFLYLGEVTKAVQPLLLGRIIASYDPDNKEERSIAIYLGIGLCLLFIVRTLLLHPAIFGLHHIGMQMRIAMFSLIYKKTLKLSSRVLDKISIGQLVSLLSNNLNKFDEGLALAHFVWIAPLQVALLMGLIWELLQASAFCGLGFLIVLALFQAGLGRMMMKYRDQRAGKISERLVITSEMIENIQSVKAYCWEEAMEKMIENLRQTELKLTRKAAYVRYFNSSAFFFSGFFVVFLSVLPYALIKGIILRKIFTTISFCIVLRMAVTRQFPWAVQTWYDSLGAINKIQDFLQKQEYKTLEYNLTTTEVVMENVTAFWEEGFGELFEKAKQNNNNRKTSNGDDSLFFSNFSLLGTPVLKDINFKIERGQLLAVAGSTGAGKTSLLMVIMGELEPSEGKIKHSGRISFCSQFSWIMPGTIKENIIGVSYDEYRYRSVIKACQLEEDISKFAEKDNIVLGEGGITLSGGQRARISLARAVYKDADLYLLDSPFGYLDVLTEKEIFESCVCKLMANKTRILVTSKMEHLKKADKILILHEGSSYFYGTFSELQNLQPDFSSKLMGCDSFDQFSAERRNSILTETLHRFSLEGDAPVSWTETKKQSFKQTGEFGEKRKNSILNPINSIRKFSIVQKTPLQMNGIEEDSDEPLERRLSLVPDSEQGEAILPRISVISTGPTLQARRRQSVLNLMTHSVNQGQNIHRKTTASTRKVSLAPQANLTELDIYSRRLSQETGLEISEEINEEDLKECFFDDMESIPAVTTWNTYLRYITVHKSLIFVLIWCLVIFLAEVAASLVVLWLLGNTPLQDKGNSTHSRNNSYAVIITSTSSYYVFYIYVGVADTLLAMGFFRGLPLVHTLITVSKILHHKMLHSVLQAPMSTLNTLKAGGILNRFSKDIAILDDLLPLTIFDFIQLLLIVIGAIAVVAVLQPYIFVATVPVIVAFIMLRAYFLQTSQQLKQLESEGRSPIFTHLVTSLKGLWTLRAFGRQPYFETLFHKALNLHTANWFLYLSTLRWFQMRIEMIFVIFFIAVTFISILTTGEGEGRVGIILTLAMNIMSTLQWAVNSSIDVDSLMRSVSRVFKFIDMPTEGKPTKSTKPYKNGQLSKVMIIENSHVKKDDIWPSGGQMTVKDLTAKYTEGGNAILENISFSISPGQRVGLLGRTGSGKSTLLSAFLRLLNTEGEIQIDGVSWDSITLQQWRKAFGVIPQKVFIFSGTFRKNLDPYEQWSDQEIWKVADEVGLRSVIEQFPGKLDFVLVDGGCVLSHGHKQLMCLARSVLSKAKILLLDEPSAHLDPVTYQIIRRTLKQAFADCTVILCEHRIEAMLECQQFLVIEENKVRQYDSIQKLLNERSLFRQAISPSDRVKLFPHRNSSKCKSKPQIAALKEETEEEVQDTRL
- ASSAY_NOTES: Assays for detecting and measuring ΔF508-CFTR correction properties (membrane potential optical assay; electrophysiological assays)
- RECORDED_CONDITIONS: NIH3T3 mouse fibroblasts stably expressing ΔF508-CFTR, read-out: BinnedEC50
REPORTED_ENDPOINT: EC50

Lookup: Query the reported EC50 for ΔF508-CFTR (Homo sapiens, UniProt P13569, DEL508-508); item: "CC(C)(CO)c1cc2cc(NC(=O)C3(c4ccc5c(c4)OC(F)(F)O5)CC3)c(F)cc2n1C[C@@H](O)CO"
Found: ≤ 2000 nM
